Test system: CCL3 and CCL4 secretion by TMD-8 cells
method: CCL3 & CCL4 ELISA in anti-IgM stimulated TMD-8 cells
Assay type: cell-based, human
conditionsUsed: 10 nM for 24 hours, 10 μg/mL anti-IgM 8 hours
parameterMeasured: CCL3 or CCL4 secretion

compound | recordedResult
O=C(c1ccc(Oc2ccccc2)cc1Cl)c1c[nH]c2ncnc(N[C@@H]3CC[C@@H](CO)OC3)c12 | little or no effect
Nc1ncnc2c1c(-c1ccc(Oc3ccccc3)cc1)nn2C1CCN(CCOCCOCC(=O)Nc2ccc3c(c2)C(=O)N(C2CCC(=O)NC2=O)C3=O)CC1 (stereo not shown) | little or no effect
